The values you see were collected from patent US10947188B2.

# Tested on: HT-1080
# Experiment: Modulatory profiling: Alamar Blue viability, lethal compound cotreated with death modulator (EC50, AUC)
# Format: cell-based
# Set-up: unit not given beside the values
# Stated Conditions: HT-1080, modulator ActD
Endpoint Label: AUC HT.ActD

1. COc1cccc2c1C(=O)c1c(O)c3c(c(O)c1C2=O)C[C@@](O)(C(C)=O)C[C@@H]3O[C@H]1C[C@H](N)[C@H](O)[C@H](C)O1 [Daunorubicin]    0.01442
2. COC(=O)c1ccc([C@@H]2c3[nH]c4ccccc4c3C[C@@H](C(=O)OC)N2C(=O)CCl)cc1 [RSL3, reference compound]    −0.08579
3. N/C(Cc1ccc(Cl)cc1)=N\OC(=O)c1cccc2ccccc12 [CIL70]    −0.02914
4. CC1(C)CC(=O)C2=C(C1)OC1=C(C(=O)CC(C)(C)C1)C2c1ccc(O)cc1O [CIL62]    −0.01143
5. CCC(C(NNC(=O)c1ccc(C(F)(F)F)cc1)c1ccc(C(F)(F)F)cc1)[N+](=O)O (centres unmarked) [CIL88]    −0.03102
6. CS[C@H]1SC[C@H]2C(=O)N(C)[C@@H](C(C)C)C(=O)OC[C@@H](NC(=O)c3cnc4ccccc4n3)C(=O)N[C@@H](C)C(=O)N(C)[C@@H]1C(=O)N(C)[C@@H](C(C)C)C(=O)OC[C@@H](NC(=O)c1cnc3ccccc3n1)C(=O)N[C@@H](C)C(=O)N2C [Echinomycin]    0.06604
7. O=C(CCl)N(c1ccccc1)c1c[nH]c2ccccc12 [CIL69]    −0.004265
8. C(=N\Nc1nc2ccccc2s1)/c1ccccn1 [CIL52]    0.07379
9. CCCCNc1c(Cl)cnn(-c2ccccc2)c1=O [CIL36]    −0.04409
10. O=C1C(Cl)=C(N2CCOCC2)C(=O)C(Cl)=C1N1CCOCC1 [CIL11]    −0.0343
11. Cc1cc(C)c2c(=O)n(CC(=O)NCCCN3CCN(c4ccccc4F)CC3)sc2n1 [CIL50]    −0.00775
12. COc1cccc2c1C(=O)c1c(O)c3c(c(O)c1C2=O)C[C@@](O)(C(=O)CO)C[C@@H]3O[C@H]1C[C@H](N)[C@H](O)[C@H](C)O1 [Doxorubicin]    0.007993
13. O=C(Oc1ccc(Cl)c2cccnc12)c1ccco1 [CIL58]    0.02044
14. CC(C)C1CC(CCNCc2ccc3c(c2)OCO3)(c2ccccc2)CCO1 (centres unmarked) [CIL51]    0.02697
15. CC[C@]1(O)C[C@H]2CN(CCc3c([nH]c4ccccc34)[C@@](C(=O)OC)(c3cc4c(cc3OC)N(C=O)[C@H]3[C@@](O)(C(=O)OC)[C@H](OC(C)=O)[C@]5(CC)C=CCN6CC[C@]43[C@@H]65)C2)C1 [Vincristine]    0.05976
16. Cc1cccnc1Nc1nc(-c2ccccn2)cs1 [CIL13]    −0.04327
17. COc1ccc(Nc2ccc3c(c2)=NC2(CCCCC2)[N+]=3[O-])cc1 [CIL9]    −0.064

---

# Tested on: BJeLR
# Experiment: Modulatory profiling: Alamar Blue viability, lethal compound cotreated with death modulator (EC50, AUC)
# Type: cell-based, human
# Stated Conditions: BJeLR cells; lethal compound cotreated with modulator NMMA; modulatory profile value (AUC)
Hi all, reminder that labels come from AUC, modulator BJ.NMMA, split as low end: < -0.007; middle: ≥ -0.007 and < 0.01; high end: ≥ 0.01

1. N/C(=N\OC(=O)C12CC3CC(CC(C3)C1)C2)c1ccccc1    high end
2. COc1ccc(C(=O)C(CN2CCCC2)c2ccccc2)cc1 (stereo not drawn)    high end
3. CC1CC2=C(CC1CNCCCN(C)C)C(C)(C)CCC2 (stereo not drawn)    middle
4. CC1=CC(C)(C)Nc2ccc(OC(=O)c3ccco3)cc21    middle
5. O=C(Oc1ccc(Cl)c2cccnc12)c1ccco1    low end
6. COc1cccc2c1C(=O)c1c(O)c3c(c(O)c1C2=O)C[C@@](O)(C(=O)CO)C[C@@H]3O[C@H]1C[C@H](N)[C@H](O)[C@H](C)O1    low end
7. O=C1C(Cl)=C(N2CCOCC2)C(=O)C(Cl)=C1N1CCOCC1    middle
8. CCCCNc1c(Cl)cnn(-c2ccccc2)c1=O    high end
9. CCC(C(NNC(=O)c1ccc(C(F)(F)F)cc1)c1ccc(C(F)(F)F)cc1)[N+](=O)O (stereo not drawn)    low end

---

# System: HT-1080
# Experiment: Modulatory profiling: Alamar Blue viability, lethal compound cotreated with death modulator (EC50, AUC)
# Type: cell-based
# Set-up: unit not given beside the values
# Stated Conditions: HT-1080, modulator ATA
Where a SMILES comes first, the peptide text is derived from it. The star is where a group is joined. Cbz = O=C(OCc1ccccc1)*
AUC HT.ATA vs 0.05: less than gives Yes; not less than gives No.

1) CS[C@H]1SC[C@H]2C(=O)N(C)[C@@H](C(C)C)C(=O)OC[C@@H](NC(=O)c3cnc4ccccc4n3)C(=O)N[C@@H](C)C(=O)N(C)[C@@H]1C(=O)N(C)[C@@H](C(C)C)C(=O)OC[C@@H](NC(=O)c1cnc3ccccc3n1)C(=O)N[C@@H](C)C(=O)N2C [Echinomycin]    Yes
2) COc1ccc(C(=O)C(CN2CCCC2)c2ccccc2)cc1 (stereo not drawn) [CIL72]    No
3) N/C(Cc1ccc(Cl)cc1)=N\OC(=O)c1cccc2ccccc12 [CIL70]    Yes
4) Cc1cc(C)c2c(=O)n(CC(=O)NCCCN3CCN(c4ccccc4F)CC3)sc2n1 [CIL50]    No
5) CN(C)CCNC(=O)c1cc2c(s1)-c1ccc(Cl)cc1SC2 [CIL55]    No
6) C[C@@H]1C[C@@H]([C@H](O)CC2CC(=O)NC(=O)C2)C(=O)[C@@H](C)C1 [cycloheximide, Cycloheximide, reference compound]    Yes
7) CC1CC2=C(CC1CNCCCN(C)C)C(C)(C)CCC2 (stereo not drawn) [CIL26]    Yes
8) CCCS(=O)(=O)c1nnnn1-c1cccc(OC)c1 [CIL15]    Yes
9) O=C(CCl)N(c1ccc(Cl)cc1)c1c[nH]c2ccccc12 [CIL75]    Yes
10) C(=N\Nc1nc2ccccc2s1)/c1ccccn1 [CIL52]    Yes
11) CCOc1ccccc1-n1c(C(C)N2CCN(C(=O)COc3ccc(Cl)cc3)CC2)nc2ccccc2c1=O (stereo not drawn) [erastin, reference compound]    Yes
12) COc1cc2c(c(OC)c1OC)-c1ccc(OC)c(=O)cc1[C@@H](NC(C)=O)CC2 [Colchicine]    No
13) CCOC(=O)[C@@H]1[C@@H](c2ccccc2)C(=O)CCN1NC(=O)c1ccccc1 [CIL89]    No
14) CN(C)CCCOS(=O)(=O)c1ccc(N2CCC(c3ccc(Cl)cc3)=N2)cc1 [CIL40]    No
15) CC(C)(C)C1CCc2c(sc(NC(=O)CN3CCNCC3)c2C(N)=O)C1 (stereo not drawn) [CIL10]    Yes
16) [O-][N+]1=c2ccc(Nc3ccccc3)cc2=NC12CCCCC2 [CIL66]    Yes
17) O=C1c2c(O)ccc(O)c2C(=O)c2c(NCCNCCO)ccc(NCCNCCO)c21 [Mitoxantrone]    Yes
18) O=c1c(Cl)c(Cl)cnn1-c1ccc(Cl)c(C(F)(F)F)c1 [CIL25]    No
19) COc1ccc(Nc2ccc3c(c2)=NC2(CCCCC2)[N+]=3[O-])cc1 [CIL9]    Yes
20) O=C(CCCCCN1C(=O)c2cccc3cccc(c23)C1=O)NO [Scriptaid]    Yes
21) CC(C)C[C@@H](C=O)NC(=O)[C@H](CC(C)C)NC(=O)[C@H](CC(C)C)NC(=O)OCc1ccccc1 [MG132, reference compound] (Cbz-Leu-Leu-Leu-aldehyde)    Yes
22) O=C1c2ccccc2-c2onc3ccc(Oc4ccccc4)c1c23 [CIL6]    Yes
23) O=P(Oc1ccccc1)(Oc1ccccc1)O[C@@H]1C=CS(=O)(=O)C1 [CIL44]    No
24) CC(C(NNC(=O)c1ccc(C(F)(F)F)cc1)c1ccc(Br)cc1)[N+](=O)[O-] (stereo not drawn) [CIL87]    No
25) C[C@H]1CCC[C@]2(C)C[C@H]3OC(=O)[C@H](CN4CCCC4)[C@H]3C=C12 [CIL80]    No
26) CC[C@]1(O)C[C@H]2CN(CCc3c([nH]c4ccccc34)[C@@](C(=O)OC)(c3cc4c(cc3OC)N(C=O)[C@H]3[C@@](O)(C(=O)OC)[C@H](OC(C)=O)[C@]5(CC)C=CCN6CC[C@]43[C@@H]65)C2)C1 [Vincristine]    No
27) O=c1c(Cl)c(Cl)cnn1-c1ccc(Cl)cc1 [CIL63]    No
28) COc1cccc2c1C(=O)c1c(O)c3c(c(O)c1C2=O)C[C@@](O)(C(C)=O)C[C@@H]3O[C@H]1C[C@H](N)[C@H](O)[C@H](C)O1 [Daunorubicin]    Yes
29) Cc1cccnc1Nc1nc(-c2ccccn2)cs1 [CIL13]    Yes
30) Cc1[nH]c2c(ccc3ccccc32)c1C1C(CCN)C1(C)C (stereo not drawn) [CIL74]    Yes
31) COc1cc([C@@H]2c3cc4c(cc3[C@H](O)[C@H]3COC(=O)[C@H]23)OCO4)cc(OC)c1OC [Podophyllotoxin]    No
32) C[S+]([O-])c1nc(-c2ccc(Br)cc2)cc(-c2ccccc2)c1C#N (stereo not drawn) [CIL17]    Yes
33) COc1cc([C@@H]2c3cc4c(cc3[C@@H](O[C@@H]3O[C@@H]5CO[C@@H](C)O[C@H]5[C@H](O)[C@H]3O)[C@H]3COC(=O)[C@H]23)OCO4)cc(OC)c1O [Etoposide]    Yes
